- System: 21_c-kit2 (DNA, G4) CGGGCGGGCGCGAGGGAGGGG
- ASSAY_INFO: fluorescent indicator displacement
- CONDITION_LABEL: K+ 40 mM (30 mM KCl + potassium phosphate); 10 mM potassium phosphate pH 7, 25 °C; 0.5 µM thiazole orange displaced, 0.25 µM DNA
Task for the reader: assign each of the following molecules its reported DC50.
Lab book: enter the figure in nM, no units written.

Input `C(=N\[C@H](COCc1ccc(-c2ccccn2)nc1)c1ccccc1)/c1ccc(OCc2cn(Cc3ccccc3)nn2)cn1.C(=N\[C@H](COCc1ccc(-c2ccccn2)nc1)c1ccccc1)/c1ccc(OCc2cn(Cc3ccccc3)nn2)cn1.C(=N\[C@H](COCc1ccc(-c2ccccn2)nc1)c1ccccc1)/c1ccc(OCc2cn(Cc3ccccc3)nn2)cn1.[Fe+2].[Fe+2]` , output reported DC50.
780

Specify reported DC50 for the molecule shown: `C(=N\[C@@H](COCc1ccc(-c2ccccn2)nc1)c1ccccc1)/c1ccc(OCc2cn(Cc3ccccc3)nn2)cn1.C(=N\[C@@H](COCc1ccc(-c2ccccn2)nc1)c1ccccc1)/c1ccc(OCc2cn(Cc3ccccc3)nn2)cn1.C(=N\[C@@H](COCc1ccc(-c2ccccn2)nc1)c1ccccc1)/c1ccc(OCc2cn(Cc3ccccc3)nn2)cn1.[Fe+2].[Fe+2]`
850

Look up DC50 of `C(=N\[C@@H](COCc1ccc(-c2ccccn2)nc1)c1ccccc1)/c1ccccn1.C(=N\[C@@H](COCc1ccc(-c2ccccn2)nc1)c1ccccc1)/c1ccccn1.C(=N\[C@@H](COCc1ccc(-c2ccccn2)nc1)c1ccccc1)/c1ccccn1.[Fe+2].[Fe+2]` and report it.
1260

Supply DC50 value. Item: `C(=N\[C@H](COCc1ccc(-c2ccccn2)nc1)c1ccccc1)/c1ccccn1.C(=N\[C@H](COCc1ccc(-c2ccccn2)nc1)c1ccccc1)/c1ccccn1.C(=N\[C@H](COCc1ccc(-c2ccccn2)nc1)c1ccccc1)/c1ccccn1.[Fe+2].[Fe+2]`
1050
